Molecular target: Neprilysin (Rattus norvegicus, UniProt P07861)
Sequence (P07861 whole entry): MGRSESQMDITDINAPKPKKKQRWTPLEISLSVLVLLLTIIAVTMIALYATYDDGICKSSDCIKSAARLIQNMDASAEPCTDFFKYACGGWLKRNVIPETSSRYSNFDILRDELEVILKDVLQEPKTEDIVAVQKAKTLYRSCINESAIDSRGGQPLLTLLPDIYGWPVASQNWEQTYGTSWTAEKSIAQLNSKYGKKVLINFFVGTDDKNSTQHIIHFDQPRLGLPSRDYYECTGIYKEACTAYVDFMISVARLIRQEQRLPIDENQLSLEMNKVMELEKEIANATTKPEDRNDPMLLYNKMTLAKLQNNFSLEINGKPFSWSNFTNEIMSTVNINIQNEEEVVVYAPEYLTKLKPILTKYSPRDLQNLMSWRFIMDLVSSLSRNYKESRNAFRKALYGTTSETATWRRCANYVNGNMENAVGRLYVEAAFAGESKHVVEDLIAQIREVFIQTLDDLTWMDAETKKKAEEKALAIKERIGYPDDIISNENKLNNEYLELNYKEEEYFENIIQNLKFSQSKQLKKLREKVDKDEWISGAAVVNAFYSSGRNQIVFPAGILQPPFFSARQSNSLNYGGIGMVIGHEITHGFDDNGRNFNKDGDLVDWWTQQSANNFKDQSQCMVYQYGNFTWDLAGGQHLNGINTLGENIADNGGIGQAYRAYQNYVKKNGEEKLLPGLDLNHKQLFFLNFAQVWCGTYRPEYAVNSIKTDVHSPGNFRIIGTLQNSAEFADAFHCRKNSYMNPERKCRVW
Test: In vitro inhibition against neutral endopeptidase 24.11 (NEP) in rat kidney cortex membrane
MEASUREMENT_NAME: IC50 (nM)

[[record]]
compound = "C[C@H](N[C@@H](CCc1ccccc1)C(=O)O)C(=O)N1C[C@@H](NC(=O)C(CS)Cc2ccccc2)C[C@H]1C(=O)O (stereo partly drawn)"
experimental_system = "Neprilysin (Rattus norvegicus, UniProt P07861)"
measurement_name = "IC50"
reading = 149

[[record]]
compound = "C[C@H](CS)C(=O)N1C[C@H](NC(=O)C(CS)Cc2ccccc2)C[C@H]1C(=O)O (stereo partly drawn)"
experimental_system = "Neprilysin (Rattus norvegicus, UniProt P07861)"
measurement_name = "IC50"
reading = 849

[[record]]
compound = "C[C@H](N[C@@H](CCc1ccccc1)C(=O)O)C(=O)N1C[C@@H](NC(=O)NC(CS)Cc2ccccc2)C[C@H]1C(=O)O (stereo partly drawn)"
experimental_system = "Neprilysin (Rattus norvegicus, UniProt P07861)"
measurement_name = "IC50"
reading = 1240


I = C[C@H](CS)C(=O)N1C[C@@H](NC(=O)C(CS)Cc2ccc(-c3ccccc3)cc2)C[C@H]1C(=O)O (stereo partly drawn)
II = C[C@H](CS)C(=O)N1C[C@@H](NC(=O)NC(CS)Cc2ccccc2)C[C@H]1C(=O)O (stereo partly drawn)
III = C[C@H](CS)C(=O)N1C[C@@H](NC(=O)C(CS)Cc2ccccc2)C[C@H]1C(=O)O (stereo partly drawn)
Problem: rank_up(items): orders items by reported IC50 in ascending numerical order. To answer, write out the labels according to the requested order.
Result: III, I, II
(III: 14 nM, I: 20 nM, II: 118 nM)

====

Molecular target: Neprilysin (Rattus norvegicus, UniProt P07861)
Sequence (P07861 whole entry): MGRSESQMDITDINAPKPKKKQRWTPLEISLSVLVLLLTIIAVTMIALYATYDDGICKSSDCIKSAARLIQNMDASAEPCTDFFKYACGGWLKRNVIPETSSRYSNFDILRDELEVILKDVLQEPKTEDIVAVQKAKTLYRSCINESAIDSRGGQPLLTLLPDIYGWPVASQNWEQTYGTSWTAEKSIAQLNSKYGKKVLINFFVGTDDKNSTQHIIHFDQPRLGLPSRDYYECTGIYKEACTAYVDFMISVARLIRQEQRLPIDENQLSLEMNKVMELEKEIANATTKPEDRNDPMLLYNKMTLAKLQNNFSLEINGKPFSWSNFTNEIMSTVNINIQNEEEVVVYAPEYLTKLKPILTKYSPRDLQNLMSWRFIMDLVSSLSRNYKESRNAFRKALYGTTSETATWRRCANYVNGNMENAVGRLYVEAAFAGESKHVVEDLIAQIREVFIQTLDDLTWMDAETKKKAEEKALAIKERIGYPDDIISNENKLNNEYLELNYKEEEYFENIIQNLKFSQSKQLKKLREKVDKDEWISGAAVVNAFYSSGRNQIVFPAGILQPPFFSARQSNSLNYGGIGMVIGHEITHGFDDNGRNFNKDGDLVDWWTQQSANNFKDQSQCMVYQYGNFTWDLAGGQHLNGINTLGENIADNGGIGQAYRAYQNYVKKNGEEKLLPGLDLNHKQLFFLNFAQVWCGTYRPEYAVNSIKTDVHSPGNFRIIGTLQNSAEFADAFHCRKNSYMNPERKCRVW
MEASUREMENT_NAME: pKi
Expect pKi as a plain number equal to -log10 of the molar concentration.

Problem: I'd like to know its pKi. The compound in question is O=C(O)CCCCCCNC(=O)C(CS)Cc1ccccc1 (stereo unspecified)
Result: 7.59
